Data origin, for the record: ChEMBL document CHEMBL1145575

TARGET UNDER TEST: Serine/threonine-protein kinase mTOR (Homo sapiens) (UniProt P42345)
PROTOCOL DESCRIPTION: Inhibition of mTOR in human H460 cells assessed as p70S6 phosphorylation at Thr 389 at 10 uM
Format: cell-based
MEASURED PROPERTY: inhibition (%)

1. COc1ccc2c(Sc3ccc([N+](=O)[O-])cc3)c3ccoc3nc2c1 | 49
2. COc1ccc2c(Nc3ccc(C(C)=O)cc3)c3ccoc3nc2c1 | 53
3. c1cn(-c2c3cc4c(cc3nc3occc23)OCO4)cn1 | 45
4. c1cncc(Oc2c3cc4c(cc3nc3occc23)OCO4)c1 | 51
5. O=[N+]([O-])c1ccc(Sc2c3cc4c(cc3nc3occc23)OCO4)cc1 | 44
6. O=[N+]([O-])c1ccc(Oc2c3cc4c(cc3nc3occc23)OCO4)cc1 | 47
